# System: CRLF2 (Homo sapiens)
# Construct: expressed in transfected cells
# Sequence (Q9HC73 23-371): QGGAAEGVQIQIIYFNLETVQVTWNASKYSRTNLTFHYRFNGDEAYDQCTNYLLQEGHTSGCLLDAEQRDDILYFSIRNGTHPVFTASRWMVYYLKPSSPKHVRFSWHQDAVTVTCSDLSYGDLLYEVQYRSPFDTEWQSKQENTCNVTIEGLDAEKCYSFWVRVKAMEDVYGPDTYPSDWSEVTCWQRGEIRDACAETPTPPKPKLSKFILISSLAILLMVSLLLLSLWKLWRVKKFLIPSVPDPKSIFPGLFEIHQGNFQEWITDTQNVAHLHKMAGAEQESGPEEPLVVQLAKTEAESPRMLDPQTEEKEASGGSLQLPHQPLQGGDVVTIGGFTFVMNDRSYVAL
# Assay Details: Flow cytometry binding of M13 phage displaying peptide to BaF3-CRLF2 cells
# Test Conditions: peptide displayed on M13 phage; BaF3-CRLF2 cells
Measured Property: Kd

input: State, in one line, measured Kd of TDAHASV [peptide ligand to CRLF2]
output: 27.9 nM

Numbers sourced from patent US20150010475A1.
